# PROTOCOL_DESCRIPTION: Solubility test in low-polarity solvents (saturated solution, λmax, solubility, εC)
# Type: physicochemical
# STATED_CONDITIONS: Isopar G; saturated solution
OBSERVED_PROPERTY: Solubility (%)
Could you give me the number in %? Just the number is fine.

Query: Entry CCCCC(CC)CN(CC(CC)CCCC)c1ccc(N=Nc2snc(CC)c2C#N)c(NC(C)=O)c1 (centres unmarked) [Dye 10] has what Solubility?
Response: 20

Query: Please do the same for CCCCC(CC)CN(CC(CC)CCCC)c1ccc(/N=N/c2sc(C(=O)OCC)c(C)c2C(=O)OCC)c(NC(=O)CC)c1 (centres unmarked) [Dye 7] as well.
Response: 10

Query: Please do the same for CCCCC(CC)CNc1ccc(NCC(CC)CCCC)c2c1C(=O)c1ccccc1C2=O (centres unmarked) [Comparative dye 2, reference compound] as well.
Response: 4.3

Query: Please do the same for CCCCC(CC)CN(CC(CC)CCCC)c1ccc(/N=N/c2snc(C)c2C#N)c(NC(=O)CC)c1 (centres unmarked) [Dye 9] as well.
Response: 13.3

Query: Please do the same for CCCCC(CC)CN(CC(CC)CCCC)c1ccc(/N=N/c2snc(CC)c2C#N)c(C)c1 (centres unmarked) [Dye 4] as well.
Response: 7.4

Query: Please do the same for CCCCC(CC)CN(CC(CC)CCCC)c1ccc(/N=N/c2snc(C)c2C#N)c(CC)c1 (centres unmarked) [Dye 8] as well.
Response: 5.17

Query: Please do the same for CCCCC(CC)CN(CC(CC)CCCC)c1ccc(N=Nc2snc(C)c2C#N)c(NC(C)=O)c1 (centres unmarked) [Dye 2] as well.
Response: 5.7

###

# PROTOCOL_DESCRIPTION: Solubility test in low-polarity solvents (saturated solution, λmax, solubility, εC)
# Type: physicochemical
# STATED_CONDITIONS: tetradecane solution
OBSERVED_PROPERTY: λmax (absorption-maximum wavelength) (nm)
Could you give me the number in nm? Just the number is fine.

Query: Entry CCCCC(CC)CN(CC(CC)CCCC)c1ccc(N=Nc2snc(CC)c2C#N)c(NC(C)=O)c1 (stereo not drawn) has what λmax (absorption-maximum wavelength)?
Response: 544

Query: Please do the same for CCCCC(CC)CN(CC(CC)CCCC)c1ccc(/N=N/c2snc(C)c2C#N)c(CC)c1 (stereo not drawn) as well.
Response: 534

Query: Please do the same for CCCCC(CC)CN(CC(CC)CCCC)c1ccc(/N=N/c2snc(CC)c2C#N)c(C)c1 (stereo not drawn) as well.
Response: 530

###

Please respond with reported εC for every item in the list.
# PROTOCOL_DESCRIPTION: Solubility test in low-polarity solvents (saturated solution, λmax, solubility, εC)
# Format: physicochemical
# STATED_CONDITIONS: tetradecane

Query: Entry CCCCC(CC)CNc1ccc(NCC(CC)CCCC)c2c1C(=O)c1ccccc1C2=O (stereo not shown) [Comparative dye 2, reference compound] has what εC?
Response: 1600 cm⁻¹

Query: Please do the same for CCCCC(CC)CN(CC(CC)CCCC)c1ccc(/N=N/c2sc(C(=O)OCC)c(C)c2C(=O)OCC)c(NC(=O)CC)c1 (stereo not shown) as well.
Response: 5400 cm⁻¹

Query: Please do the same for CCCCC(CC)CN(CC(CC)CCCC)c1ccc(N=Nc2snc(CC)c2C#N)c(NC(C)=O)c1 (stereo not shown) as well.
Response: 16700 cm⁻¹

Query: Please do the same for CCCCC(CC)CN(CC(CC)CCCC)c1ccc(N=Nc2snc(C)c2C#N)c(NC(C)=O)c1 (stereo not shown) as well.
Response: 4900 cm⁻¹
